Assay: NCI Yeast Anticancer Drug Screen. Data for the cln2 rad14 strain (AID 165);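 further: 0% = growth equal to vehicle treated cultures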
Conditions: S. cerevisiae cln2 rad14 strain, at 50.0 µM, active compounds read high
Procedure: Growth inhibition of yeast strains with defined genetic alterations is measured as a screen for potential anti-cancer activity. Selected strains with alterations in DNA damage repair or cell cycle control were exposed to compounds and growth inhibition was measured relative to vehicle treated controls. The strain used in this assay is cln2 rad14
This is part of a sample that, as a whole, favours compounds with a hit. Of some 79,000 tested, about 15% had one in any assay.
ASSAY_READOUT: growth inhibition (%)
Give bare numbers, in %.

Worked cases, growth inhibition given:
| MOLECULE | growth inhibition, % |
| --- | --- |
| CCOc1ccc2c(c1)[n+]([O-])c(-c1ccccc1)c(N)[n+]2[O-] | 98.6 |
| CC(CCC(=O)O)[C@H]1CCC2[C@H]3C(CC[C@@]21C)[C@@]1(C)CCC(O)C[C@H]1C[C@@H]3O (some centres not stated) | 73 |
| CCCCCCCCCCCCCCCCNC(=O)/C(=C\c1ccccc1O)NC(=O)c1ccccc1 | 27.3 |
| CC(=O)Nc1ccc(-c2nnc(SCC(=O)Nc3cccc(Cl)c3)o2)cc1 | -33.8 |
| Clc1ccccc1N1CCN(c2c3c(nc4ccccc24)CCCCC3)CC1 | 94.2 |
| COc1cc(CC(=O)O)c(Cc2ccc3c(c2)Cc2ccccc2-3)cc1OC | 88.7 |

Hi! Can you tell me growth inhibition for each of these molecules?
1. CC(=O)OC(c1ccc(Cl)cc1)c1ccc(Cl)cc1
2. Nc1ccc(S(=O)(=O)Nc2nc3ccccc3nc2N2CCCCC2)cc1
3. O=c1[nH][nH]c(=O)c2c1nc(SCc1ccccc1)n2Cc1ccccc1
4. Cc1cccc2c1CC1(C2)Cc2c(C)cccc2C1=O (configuration not stated)
5. Cc1ccc(S(=O)(=O)N2CCN(C)CC2)cc1
6. O=c1[nH]c2c([N+](=O)[O-])cc(Cl)cc2nc1/C=C(\O)c1ccccn1
7. CC(CC(C)[C@H]1CCC2[C@H]3C(CC[C@@]21C)[C@@]1(C)CCC(O)C[C@H]1C[C@@H]3O)C(=O)O (some centres not stated)

Result block:
8.85
32.3
75.8
55.5
-0.55
37
97.1

Hi! Can you tell me growth inhibition for each of these molecules?
1. O=C(Cc1ccccc1)c1ccccc1C(=O)NNc1ccccc1
2. Cc1cccc2c1NC(c1c(C)[nH]c3ccccc13)C2 (configuration not stated)
3. CN1CCN(CCCCN2c3ccccc3Sc3ccc(C(=O)c4ccccc4)cc32)CC1

Result block:
-51.9
30.4
-9.8

###

Experiment: NCI Yeast Anticancer Drug Screen. Data for the mec2-1 strain (AID 157)
Conditions: S. cerevisiae mec2-1 strain, at 50.0 µM
The panel holds about 79,000 compounds, 15% with a hit somewhere; the sample as a whole holds those more often. Activity calls are given as the source filed them. Rule as the data show it: active = growth inhibition above about 70%; inactive = the rest.
The categories you may choose from are TRUE = active, FALSE = inactive

Query block: Name the outcome recorded for COc1ccc(CN2C(=O)C(Cl)=C(Cl)C2=O)c(OC)c1 in the assay.
Result block: TRUE

Query block: Name the outcome recorded for N=c1n(CC(=O)NC23CC4CC(CC(C4)C2)C3)c2ccccc2n1CC(=O)NC12CC3CC(CC(C3)C1)C2 in the assay.
Result block: FALSE

Query block: Name the outcome recorded for CC(=O)OC1CCC2(C)C3CCC4(C)C(CCC4(Br)C(=O)CBr)C3CC(Br)C2(Br)C1 (stereo unspecified) in the assay.
Result block: FALSE

Query block: Name the outcome recorded for CC1=C(C(=O)OCCO[N+](=O)[O-])C(c2ccccc2[N+](=O)[O-])C(C(=O)OC(C)C)=C(C)N1 (stereo unspecified) in the assay.
Result block: TRUE

Query block: Name the outcome recorded for CC(C)(C)c1ccc(-c2nc3ccccc3c(=O)o2)cc1 in the assay.
Result block: FALSE

Query block: Name the outcome recorded for COc1ccc(C2(O)c3ccccc3C(=O)C2c2ccccn2)cc1 (stereo unspecified) in the assay.
Result block: TRUE

Query block: Name the outcome recorded for CCCCCCCCCCCCNc1ccccn1 in the assay.
Result block: FALSE

Query block: Name the outcome recorded for COC(C)(C)[C@@H]1CCCN1C1=C(C)C(=O)OC1 in the assay.
Result block: FALSE

Query block: Name the outcome recorded for COC(=O)CCC(=O)c1ccc2c(c1)CC1(Cc3ccccc3C1)C2 in the assay.
Result block: FALSE

Every entry's value here was drawn from PubChem BioAssay (NCI).
